Listing: normalized growth of selected compounds
assay.details: chemical genetic growth profiling, strain panel (AID 1159580);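 also: tested at 20 µM; growth read once vehicle control cultures reached saturation at 30 °C; 1 = growth at the plate median or of vehicle wells; lower values mean less growth of the strain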
condition.set: S. cerevisiae deletion strains, growth OD, locus YPR141C, strain kar3, stronger effect = lower value
The whole screen tested about 5,500 compounds, of which about 2,000 (36%) were called active. Inconclusive results (about 18%) are left out. This is one part of the list.
API note: the answer field is a bare number with no unit suffix.

A selection of reference data follows.
O=C(O)CCCCCCCC(=O)O : 1
CN[C@@H]1C(OC2[C@H](O[C@H]3[C@H](O)[C@@H](O)[C@H](N=C(N)N)[C@@H](O)[C@@H]3N=C(N)N)OC(C)[C@]2(O)CO)OC(CO)C(O)C1O (stereo partly drawn) : 0.972
NCC[C@@H](O)C(=O)N[C@@H]1C[C@H](N)[C@@H](O[C@H]2O[C@H](CN)[C@@H](O)[C@H](O)[C@H]2O)[C@H](O)[C@H]1O[C@H]1O[C@H](CO)[C@@H](O)[C@H](N)C1O (stereo partly drawn) : 1.01
Oc1c(Cl)cc(Cl)c(Cl)c1Cc1c(O)c(Cl)cc(Cl)c1Cl : 0.0848
Cc1cc(CC(=O)O)n(C)c1C(=O)c1ccc(Cl)cc1 : 1.01

Entry NCCCCCC(=O)O ; normalized growth = 1.02

Entry NCCCC(=O)O ; normalized growth = 1.02

Entry CC1[C@H](C)OC(=O)CC(O)CC(O)CC(O)CCC(O)C(O)C[C@]2(O)CC(O)C(C(=O)O)C(CC(OC3O[C@H](C)[C@@H](O)[C@H](N)[C@@H]3O)/C=C/C=C/C=C/C=C/CC/C=C/C=C/[C@H](C)[C@H]1O)O2 (stereo partly drawn) ; normalized growth = 0.0655

---

Listing: normalized growth of selected molecules
assay.details: chemical genetic growth profiling, strain panel (AID 1159580);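 also: tested at 20 µM; growth read once vehicle control cultures reached saturation at 30 °C; 1 = growth at the plate median or of vehicle wells; lower values mean less growth of the strain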
condition.set: S. cerevisiae deletion strains, growth OD, locus YJL092W, strain hpr5, stronger effect = lower value
In all, about 5,500 compounds went through this assay and about 2,000 (36%) were called active. Inconclusive results (about 18%) are left out. The list shows a part of the results.
API note: the answer field is a bare number with no unit suffix.

A selection of reference data follows.
COc1ccc2oc3ccccc3c(=O)c2c1 : 0.944
O=c1[nH]c(=O)n(C2C[C@H](O)[C@@H](CO)O2)cc1C(F)(F)F (stereo not given in full) : 0.962
Oc1c(Cl)cc(Cl)c(Cl)c1Cc1c(O)c(Cl)cc(Cl)c1Cl : 0.0606
COc1ccc(-c2oc3cc(OC)c(OC)c(OC)c3c(=O)c2OC)cc1OC : 0.966

Entry COC(=O)[C@@H]1OC(=O)C2OC23[C@@]1(C)CCC1[C@@]2(C)CCC(=O)C(C)(C)C2C[C@@H](OC(C)=O)[C@]13C (stereo not given in full) ; normalized growth = 1.01

---

assay.details: chemical genetic growth profiling, strain panel (AID 1159580);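 also: tested at 20 µM; growth read once vehicle control cultures reached saturation at 30 °C; 1 = growth at the plate median or of vehicle wells; lower values mean less growth of the strain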
condition.set: S. cerevisiae deletion strains, growth OD, locus YDL185W, strain tfp1
About 2,000 (36%) of roughly 5,500 compounds were called active. Roughly 18% stayed inconclusive and do not appear here. Cut-off read from the data, not from the text of the source: active = normalized growth mostly below about 0.91 (no sharp cut-off); inconclusive = no clear call, values can overlap the other calls; inactive = mostly above about 0.92. Some of the results follow.
Select the matching outcome among active, inactive

Clc1ccc(COC(Cn2ccnc2)c2ccc(Cl)cc2Cl)cc1 (stereo not given) : active

// switching to the query molecule
Query: Per the assay record, what outcome was assigned to O=C(O)CCCCCCCC(=O)O ?
Result: inactive

Recorded values, source PubChem BioAssay AID1159580.
